inhibition in vivo at 20 mg/kg for assorted compounds
# Test system: gastric acid secretion
# measurement.description: Inhibition of gastric acid secretion (Total Acid Output) in rats; antisecretory activity
# Type: in vivo, Female Sprague-Dawley rats
# recorded.conditions: rat; id; 20 mg/kg; read-out: Percent Inhibition at 20 mg/kg id
# Protocol: The compounds of the invention are useful for inhibition of gastric acid secretion as measured by the following test. […] The sample of gastric contents collected is drained into a centrifuge tube and centrifuged to pack down the sediment. The volume is read and a 1 ml aliquot of the supernatant is put into a beaker containing 10 ml distilled water and is titrated to pH7 using 0.01 N sodium hydroxide. […]
quantity.name: inhibition in vivo at 20 mg/kg

* N=CN1CCCCC1 | 0%
* CCCCCCCCCCCCN=CN1CCC(C(c2ccccc2)c2ccccc2)CC1.O=C(O)/C=C/C(=O)O [fumarate] | 80%
* COc1ccc(CN=CN2CCC(C(c3ccccc3)c3ccccc3)CC2)cc1 | 63%
* CCCCCCN=CN1CCC(C(c2ccccc2)c2ccccc2)CC1 | 96%
* CCCCCCCCN=CN1CCC(=C(c2ccccc2)c2ccccc2)CC1 [R1,A=benzhydrylidene; R2=H; R3=n-octyl] | 68.2%
* Clc1ccc(CN=CN2CCC(C(c3ccccc3)c3ccccc3)CC2)cc1 | 94%
* CC(C)N=CN1CCC(C(c2ccccc2)c2ccccc2)CC1 | 96%
* C(=NCCCCc1ccccc1)N1CCC(C(c2ccccc2)c2ccccc2)CC1 [R1=diphenylmethyl; A=H; R2=H; R3=drawing 19] | 82%
* COc1ccc(C(c2ccccc2)C2CCN(C=N)CC2)cc1 (stereo not drawn) | 100%
